B1: TRIM39 (parent)
chain: YPCVLATEGFTSGRHYWEVEVGDK

- Variants of: B1
- measurement_description: protein stability index of a GFP-peptide fusion (GPS, HEK-293T) (PSI 1-6); higher = more stable;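 note: lentivirally expressed fusions sorted by FACS into six bins by GFP to DsRed ratio, PSI derived from sequencing read proportions per bin multiplied by bin number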
- condition_label: c terminus: a fixed tail appended
Reported protein stability index values follow for various variants
Could you keep your reply to the number by itself?

These solved cases illustrate the format of a correct answer.
W17D: 3.88
T7K: 2.46

Continue with the variant presented below.
Incoming: What value of protein stability index has been reported for the following variant? P2K
Outgoing: 1.99
